# Test system: HOP-62 NSCLC
# PROCEDURE_TEXT: NCI-60 one-dose screen, 48 h
# SETTINGS: 10 µM unless noted
About 83,000 compounds went through this panel and 20% of them were active in at least one assay; those are over-represented in the sample as a whole. Active and inactive are the calls of the source. The calls were made as follows: active = growth percent below 10; inactive = the rest.
Write down the outcome that applies. Available outcomes: true = active, false = inactive

Before answering, review these 10 worked examples.
# MOLECULE, CATEGORY_LABEL
records = [
    ("COc1cc(/C=N/n2cnc3oc(-c4ccccc4)cc3c2=N)cc(CN2CCOCC2)c1O", "false"),
    ("CCOP(=O)(OCC)OC[C@]12CCC(C)(C)C[C@H]1C1=CC[C@@H]3[C@@]4(C)C/C(=C\\c5cccnc5)[C@H](OP(=O)(OCC)OCC)C(C)(C)[C@@H]4CC[C@@]3(C)[C@]1(C)CC2", "false"),
    ("COc1ccc(/C(C)=C(\\c2ccc(Cl)cc2)c2ccc(OCCN)cc2)cc1", "false"),
    ("N/C(=N\\OC(=O)CSc1nc2ccccc2s1)c1ccc(Cl)cc1", "false"),
    ("CCNCc1c(-c2cccc(OC(F)(F)F)c2)[nH]c2ccc(N3CCCC3)cc2c1=O", "false"),
    ("C#C[C@]1(O)CC[C@H]2[C@@H]3CC=C4c5sc(-c6ccccn6)nc5CC[C@]4(C)[C@H]3CC[C@@]21C", "false"),
    ("Oc1ccc(CSc2nnc(-c3cnccn3)o2)c2cccnc12", "false"),
    ("N#C/C(=C\\c1ccc(-c2ccc(F)cc2)o1)C(=O)Nc1ncc(Cc2ccc(Cl)cc2Cl)s1", "true"),
    ("O=C(CCCCCCN1CC(=O)N2[C@@H](c3ccccc3)c3[nH]c4ccccc4c3C[C@H]2C1=O)NO", "false"),
    ("Nc1nc(N)c2c(n1)NC(c1ccccc1)CC(c1ccc(Nc3nc(NCCO)nc(Nc4ccc(Cl)cc4)n3)cc1)=N2 (centres undefined)", "true"),
]

query: How did this test come out for C[C@H]1[C@H](C)CC[C@]2(COC(=O)c3cccnc3)CC[C@]3(C)C(=CC[C@@H]4[C@@]5(C)CCCNC(C)(C)[C@@H]5CC[C@]43C)[C@H]12 ?
result: false

query: How did this test come out for CSc1ccc(/C(=N/N=C(N)N)c2ccccc2)cc1 ?
result: false

query: How did this test come out for Fc1ccc(-c2cc3nc(C(Cl)Cl)nc(-c4cccs4)n3n2)cc1 ?
result: true

query: How did this test come out for O=C(NNc1nc2cc(F)c(F)cc2n2cccc12)c1ccncn1 ?
result: false

query: How did this test come out for CCc1ccc(NC(=O)N[C@@H](Cc2cccc(F)c2)C(=O)N[C@@H]2C(=O)N3CCC[C@H]3C(=O)N3CCCC[C@H]3C(=O)N[C@@H](C)C(=O)N3C[C@H](C)C[C@H]3C(=O)O[C@H]2C)c(F)c1 ?
result: false

query: How did this test come out for O=C1Nc2ccc(Cl)cc2/C1=C/c1ccc(OCc2ccc(F)cc2)cc1 ?
result: false

query: How did this test come out for C#C[C@]1(O)CC[C@H]2[C@@H]3CC=C4c5sc(Nc6cccc(Cl)n6)nc5CC[C@]4(C)[C@H]3CC[C@@]21C ?
result: true

query: How did this test come out for CC[C@@](C)(NC(=O)C(C)(C)NC(=O)[C@@H](NC(=O)[C@@H]1CCCN1C(=O)C(C)(C)NC(=O)[C@H](CC(C)C)NC(=O)CNC(=O)C(C)(C)NC(=O)[C@@H](NC(=O)C(C)(C)NC(=O)[C@H](CCC(N)=O)NC(=O)[C@H](C)NC(=O)C(C)(C)NC(=O)[C@H](C)NC(=O)C(C)(C)NC(=O)[C@H](C)NC(=O)C(C)(C)NC(C)=O)C(C)C)C(C)C)C(=O)N[C@@H](CCC(N)=O)C(=O)N[C@@H](CCC(N)=O)C(=O)N[C@H](CO)CC1CCCCC1 ?
result: false

query: How did this test come out for COc1ccc(-c2nc(SCC(C)C)nc(N/N=C\c3cccc([N+](=O)[O-])c3)c2C#N)cc1 ?
result: false

query: How did this test come out for CC1OC(O[C@@H]2[C@H](O)C(CO)OC(O[C@H]3COC(O[C@H]4CC[C@]5(C)[C@H]6CC[C@]78OC[C@@]9(CCC(C)(C)C[C@H]97)[C@H](O)C[C@@]8(C)[C@]6(C)CC[C@H]5C4(C)C)[C@@H](OC4OC(CO)[C@@H](O)[C@@H](O)[C@@H]4O)[C@@H]3O)[C@H]2OC2OC[C@@H](O)[C@@H](O)[C@@H]2O)[C@@H](O)[C@@H](O)[C@H]1O (some centres undefined) ?
result: true

query: How did this test come out for O=C(CN1CCN(c2cc(=O)n(-c3ccccc3)c3ccccc23)CC1)Nc1ccc([N+](=O)[O-])cc1 ?
result: false

query: How did this test come out for COc1ccc2c(c1)oc1c3[nH]c4ccccc4c3c3c(c21)C(=O)N(O)C3=O ?
result: false
